test: Antiinflammatory activity against human neutrophils assessed as inhibition of fMLP/CB-induced elastase release; assay type: functional, cell-based; conditions: Neutrophil
measuredParameter: IC50

Give the reported IC50 for this molecule. COc1ccc(CCN(C)C(=O)/C=C/c2ccc(O)cc2)cc1 [AILANTHAMIDE]
4.23 µg/mL

Next:
Give the reported IC50 for this molecule. `c1cc2c(cc1[C@H]1OC[C@H]3[C@@H]1CO[C@@H]3c1ccc3c(c1)OCO3)OCO2`
1.38 µg/mL

Give the reported IC50 for this molecule. `COc1c(O)ccc2c1cnc1c3cc4c(cc3ccc21)OCO4`
1.94 µg/mL

###

assay: Antiinflammatory activity against human neutrophils assessed as inhibition of fMLP/CB-induced superoxide anion generation; type: functional, cell-based; settings: Neutrophil
Entries and their IC50
The answer is to be given in µg/mL; state only the numeric part.

Give the reported IC50 for this compound. `c1cc2c(cc1[C@H]1OC[C@H]3[C@@H]1CO[C@@H]3c1ccc3c(c1)OCO3)OCO2`
4.3

Give the reported IC50 for this compound. `COc1ccc(CCN(C)C(=O)c2ccccc2)cc1`
8.49

Give the reported IC50 for this compound. `c1ccc2c(c1)[I+]c1ccccc1-2`
0.54

Give the reported IC50 for this compound. `O=C1OC[C@H](Cc2ccc3c(c2)OCO3)[C@H]1Cc1ccc2c(c1)OCO2`
0.6

Give the reported IC50 for this compound. `COc1c2ccoc2nc2c(OC)cccc12`
7.17

###

test: Antiinflammatory activity against human neutrophils assessed as inhibition of fMLP/CB-induced elastase release; assay type: functional, cell-based; settings: Neutrophil
# label = 1 (yes) if IC50 < 7 µg/mL else 0 (no)

Confirm or reject: IC50 of `COc1ccc(CCN(C)C(=O)c2ccccc2)cc1` lies strictly below 7 µg/mL
0 (no)

Confirm or reject: IC50 of O=S(=O)(F)Cc1ccccc1 [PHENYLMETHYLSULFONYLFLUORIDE] lies strictly below 7 µg/mL
0 (no)

Confirm or reject: IC50 of `CC(=O)/C=C/C=C/C(=O)NCC(C)C` lies strictly below 7 µg/mL
1 (yes)

Confirm or reject: IC50 of CC1(C)C=Cc2cc3ccc(=O)oc3cc2O1 [XANTHYLETIN] lies strictly below 7 µg/mL
1 (yes)

# evaluate next
Confirm or reject: IC50 of COc1cc(C(=O)C(CO)c2ccc(O)c(OC)c2)ccc1O (stereo not given) [EVOFOLIN B] lies strictly below 7 µg/mL
1 (yes)
